Numbers sourced from the nanobody polyreactivity screen of Harvey et al. (2022).

- assay comment: yeast display, Sf9 membrane polyspecificity reagent, FACS + sequencing; frameworks hold sequencing errors
measured property: polyreactivity (PSR sort gate)

QVQLVESGAGLVQAGGSLRLSCAASGSTFPFYDMGWYRQAPGKEREFVAVISSSGGSTYYADSVKGRFTISRDNAKNTVYLQMNSLKPEDTAVYYCARRYPGRWYDYWGQGTQVTVSS	high polyreactivity
QVQLVESGGGLVQAGGSLRLSCAASGFTFTPNAMGWYRQAPGKERELVAAISGSGGSTYYADSVKGRFTISRDNAKNTVYLQMNSLKPEDTAVYYCAKRRGVYTHWYDYWGQGTQVTVSS	high polyreactivity
QVQLVESGRGLVQAGGSLRLSCAASGRIFGVYAMGWDRQAPGKERELVAAISGSTTRTYYADSVKGRFTISRDTAKNTVYLQMNSLKPEDTAVYYCAARSYTPSYKMDYWGQGTQVTVSS	high polyreactivity
QVQLVESGGALVQAGGSLLLSCAASGSIFQPYAMGWYRQAPGKERELVAAITNGGSTYYADSVKGRFTISRDNAKNTVYLQMNSLNPEDTAVYYFAADVQSSHVYDYWGQGTQVTVSS	low polyreactivity

Turning now to a further sequence:
# polyreactivity (PSR sort gate) lookup, item `QDQLVESGGGLFQAGGSLSLSCAASGNTFYWNAMGWYRQATGKEREFVAAISTTGVSTYYADSVKGRFTISRDNSKNTVYLQMNSLKPEDTAVYYCASEIIGYHTIYDYWGQGTQVTVSS` low polyreactivity

---

- assay comment: yeast display, Sf9 membrane polyspecificity reagent, FACS + sequencing; frameworks hold sequencing errors
measured property: polyreactivity (PSR sort gate)

Example sequences with recorded polyreactivity (PSR sort gate):
QVQLVESGGGLVQAGGSLRLSCAASGSIFTVNAMGWYRQAPGKERELVAAISDSGGSTYYADSVKGRFTISRDNAKNTVYLQMISLKPEDTAVYYCAVEIYYFVYGISYDYWGQGTQVTVSS	high polyreactivity
QVQLQESGGGLVQAGGSLRLSCAASGYISSWYPMGWYRQAPGKEREFVATIAPGATTYYADSVKGRFTISRDYAKNTVYLQMNSLKPEDTAVYYCAAGPLNNDFYSYWGQGTQVTVSS	low polyreactivity
QVQLVESAGGLVQAGGSLRLSCAPSGRIFYYNAMGWYRQAPGKERELVAAITSGGSTNYADSVKGRFTISRDNAKNTVYLQMNSLKPEDTAVYYCAADYYFYVAGVHYDYWGQGTQVTVSS	low polyreactivity
QVQLVESGGGRVHAGGSHRISCAASGSIFGRYAMGGYRQAPRQDREVVAAISSRGGSTYYADTVKGRFTISRDNAKNTVYLQMTSLKPEDTAFYYCAKENWCTSYYARYDDWGQGTQVTVSS	high polyreactivity
QVQLVESGGGLVQAGGSLRLSCAASGRTFSNNAMGWYRQAPGKERELVAAISSTGGRTYYADSVKGRFTISRDNAKNTGYLQLNSLKPEDTAVYYCAATYVHYPSLGYDYWGQGTQVTVSS	high polyreactivity
QVQLVESGGGLVQARGRLRLSFAASGSIFSTNAMGWYRQATGKERELVAAISSSDGITYYADSVKGRFTISRDNAMNTVYLQMNSLKPEDTAVYYCAAEYAYGIEESSAYNIYFYWGQGTQVTVSS	high polyreactivity

Quick one: polyreactivity (PSR sort gate) for `QVLLQESGGGLVQAGGSLRLSCAASGSIFLIYTMGWYRHAPVKEREFVAGITLGTTTYNADSVKGRFTISRDNVKNTVYLKMNILKPEDTEVYYCAVAVGHYTEFWYWGQGTQVTMSS` ? high polyreactivity
